Target: Neu5Ac(a2-3)Gal(b1-4)GlcNAc(b1-3)Gal(b1-3)GlcNAc
Test: glycan array binding signal (z-score within array); higher = stronger binding
Conditions: glycan notation: IUPAC condensed, linker removed
About 410 targets per protein were measured; listed, in parts, are those with the strongest signals and a random draw of the rest.
Classification field: enter fulfilled for glycan array binding signal (z-score) values not below -0.1, not fulfilled for values below it.

Known results for binders:
- binder: "LFA (Limax flavus) (protein) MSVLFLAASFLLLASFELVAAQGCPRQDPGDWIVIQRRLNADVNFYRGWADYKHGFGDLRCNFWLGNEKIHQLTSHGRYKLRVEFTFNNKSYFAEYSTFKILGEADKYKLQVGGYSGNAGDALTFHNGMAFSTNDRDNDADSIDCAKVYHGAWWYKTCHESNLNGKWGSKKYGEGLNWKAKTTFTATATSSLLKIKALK"
  qualitativeLabel: "not fulfilled"
- binder: "Mincle (Bos taurus) (protein) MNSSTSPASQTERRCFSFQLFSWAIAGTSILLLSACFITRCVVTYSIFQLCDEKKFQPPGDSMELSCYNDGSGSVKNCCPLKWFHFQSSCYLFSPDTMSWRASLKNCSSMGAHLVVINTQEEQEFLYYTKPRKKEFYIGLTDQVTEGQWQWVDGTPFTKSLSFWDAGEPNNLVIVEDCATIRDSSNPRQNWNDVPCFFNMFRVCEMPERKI"
  qualitativeLabel: "fulfilled"
- binder: "LlpA (Arthrobacter sp) (protein) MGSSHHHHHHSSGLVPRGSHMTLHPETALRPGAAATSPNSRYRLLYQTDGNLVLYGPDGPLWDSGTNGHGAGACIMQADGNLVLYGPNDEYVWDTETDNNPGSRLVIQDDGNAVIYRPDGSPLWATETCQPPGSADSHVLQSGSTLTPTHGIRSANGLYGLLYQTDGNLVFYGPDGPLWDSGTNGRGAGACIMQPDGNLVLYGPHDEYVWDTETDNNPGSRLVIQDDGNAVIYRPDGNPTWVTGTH"
  qualitativeLabel: "fulfilled"
- binder: "CLC (Homo sapiens), Q9UBD9 (protein) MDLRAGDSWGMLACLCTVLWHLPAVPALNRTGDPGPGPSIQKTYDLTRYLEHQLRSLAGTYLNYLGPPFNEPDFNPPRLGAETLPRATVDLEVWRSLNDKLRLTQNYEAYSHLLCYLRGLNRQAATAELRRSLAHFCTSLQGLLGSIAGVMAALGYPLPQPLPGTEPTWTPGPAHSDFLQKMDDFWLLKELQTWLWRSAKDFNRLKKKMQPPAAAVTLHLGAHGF"
  qualitativeLabel: "fulfilled"
- binder: "CD34 (Homo sapiens), P28906 (protein) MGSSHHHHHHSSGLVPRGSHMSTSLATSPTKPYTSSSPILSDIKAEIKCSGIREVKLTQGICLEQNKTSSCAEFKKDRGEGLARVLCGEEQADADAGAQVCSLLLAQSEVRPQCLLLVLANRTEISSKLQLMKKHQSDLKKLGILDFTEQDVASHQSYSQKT"
  qualitativeLabel: "not fulfilled"
- binder: "FGF1 (Homo sapiens), P05230 (protein) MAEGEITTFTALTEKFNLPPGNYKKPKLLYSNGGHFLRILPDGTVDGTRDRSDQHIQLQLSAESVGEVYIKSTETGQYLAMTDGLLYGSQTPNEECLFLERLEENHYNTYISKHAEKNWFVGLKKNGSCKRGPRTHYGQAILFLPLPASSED"
  qualitativeLabel: "not fulfilled"
- binder: "Clrb (Mus musculus) (protein) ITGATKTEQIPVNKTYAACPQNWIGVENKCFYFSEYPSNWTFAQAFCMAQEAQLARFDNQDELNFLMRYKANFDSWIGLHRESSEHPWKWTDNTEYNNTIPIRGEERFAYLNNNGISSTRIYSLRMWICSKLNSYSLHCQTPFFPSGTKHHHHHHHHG"
  qualitativeLabel: "not fulfilled"
- binder: "GS13455A-bfa-343-25-343 (Bacteroides fragilis) (protein) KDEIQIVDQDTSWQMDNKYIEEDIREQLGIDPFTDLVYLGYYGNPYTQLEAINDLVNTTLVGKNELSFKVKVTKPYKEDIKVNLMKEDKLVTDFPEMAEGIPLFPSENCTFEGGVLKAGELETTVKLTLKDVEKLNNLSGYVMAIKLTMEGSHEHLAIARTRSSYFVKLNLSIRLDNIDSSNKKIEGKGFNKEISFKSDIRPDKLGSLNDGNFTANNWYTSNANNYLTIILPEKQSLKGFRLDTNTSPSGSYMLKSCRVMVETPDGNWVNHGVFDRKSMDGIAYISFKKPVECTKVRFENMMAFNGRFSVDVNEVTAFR"
  qualitativeLabel: "fulfilled"

Request: Quick check, glycan array binding signal (z-score) >= -0.1? Intelectin-1a (Mus musculus) (protein) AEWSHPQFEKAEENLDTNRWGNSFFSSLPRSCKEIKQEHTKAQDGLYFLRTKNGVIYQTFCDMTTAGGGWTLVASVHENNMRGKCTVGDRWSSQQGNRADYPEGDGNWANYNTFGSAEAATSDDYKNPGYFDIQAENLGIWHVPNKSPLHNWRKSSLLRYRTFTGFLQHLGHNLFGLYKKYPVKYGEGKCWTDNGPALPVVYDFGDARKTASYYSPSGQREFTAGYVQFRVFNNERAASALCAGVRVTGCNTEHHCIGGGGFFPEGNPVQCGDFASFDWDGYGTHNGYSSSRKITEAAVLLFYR
Result: not fulfilled

Request: Assess whether reported glycan array binding signal (z-score) for MLTim-4 (Mus musculus), Q6U7R4 (protein) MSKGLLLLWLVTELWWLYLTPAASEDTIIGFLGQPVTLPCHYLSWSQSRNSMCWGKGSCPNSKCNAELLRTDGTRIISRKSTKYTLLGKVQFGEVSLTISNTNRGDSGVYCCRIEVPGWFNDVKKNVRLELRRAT sits at -0.1 or higher.
Result: not fulfilled

Request: Kindly determine if glycan array binding signal (z-score) recorded for LEA (Lycopersicon esculentum) (protein) NEVFDVPMNETIGVESINASVGGYPRCGAQGDGGNCPSGMCCSVWGWCGKTYGYCAPQNCQKQCPAPYPEGRCGWQADGKSCPNGKCCSYGGWCGTTSDYCARQNCQKQCILPSPPPPPPPPPGFPRPECGLQKNGERCTKPGECCSIWGLCGATYKYCDPQHCQKQCSAPFPPGRCGWQADGRPCPTGQCCSFSGWCGTTSAHCTYPQCVSQCNDPRFPSSLNNRIQSFML is above or exactly -0.1.
Result: not fulfilled

Source: the supplement of paper PMC8728848
